Target: human 5-HT2C-INI (WT) receptor (Homo sapiens, UniProt P28335, Y358A)
Sequence (P28335 33-458 Y358A): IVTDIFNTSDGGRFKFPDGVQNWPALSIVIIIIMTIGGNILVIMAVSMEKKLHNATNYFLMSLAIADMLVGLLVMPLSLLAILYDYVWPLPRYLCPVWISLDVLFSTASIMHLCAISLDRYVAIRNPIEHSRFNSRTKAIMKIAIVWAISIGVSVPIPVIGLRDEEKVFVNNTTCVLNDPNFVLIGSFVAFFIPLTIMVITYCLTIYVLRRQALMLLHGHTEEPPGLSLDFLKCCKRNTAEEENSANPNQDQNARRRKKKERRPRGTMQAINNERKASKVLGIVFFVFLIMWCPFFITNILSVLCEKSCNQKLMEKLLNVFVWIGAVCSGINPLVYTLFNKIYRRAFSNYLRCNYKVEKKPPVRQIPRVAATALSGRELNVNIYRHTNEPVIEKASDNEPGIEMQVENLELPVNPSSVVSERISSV
Assay: competition with [3H]-mesulergine, HEK membranes
value type: pKi
Quick note: pKi means taking -log10 of the concentration in moles per liter.

Give the measured pKi of `NCCc1c[nH]c2ccccc12` .
6.53

Give the measured pKi of NC1Cc2ccccc2C(c2ccccc2)C1 (racemic) .
5.87

----------
Here we list compounds with their recorded Ki when tested on human 5-HT2C-INI (WT) receptor (Homo sapiens).
All answers are understood in nM, so give the number only.

Give the measured Ki of `NCCc1c[nH]c2ccccc12` .
57.1

Give the measured Ki of NC1Cc2ccccc2C(c2ccccc2)C1 (racemic) .
1550
